Molecular target: MFN2IM (Homo sapiens, UniProt O95140, DEL401-705)
Construct: deletion of residues 1-21 and 401-705 (G domain + HD1); E. coli; N-terminal His6 cut by PreScission
Sequence (O95140 22-400, stated change not applied): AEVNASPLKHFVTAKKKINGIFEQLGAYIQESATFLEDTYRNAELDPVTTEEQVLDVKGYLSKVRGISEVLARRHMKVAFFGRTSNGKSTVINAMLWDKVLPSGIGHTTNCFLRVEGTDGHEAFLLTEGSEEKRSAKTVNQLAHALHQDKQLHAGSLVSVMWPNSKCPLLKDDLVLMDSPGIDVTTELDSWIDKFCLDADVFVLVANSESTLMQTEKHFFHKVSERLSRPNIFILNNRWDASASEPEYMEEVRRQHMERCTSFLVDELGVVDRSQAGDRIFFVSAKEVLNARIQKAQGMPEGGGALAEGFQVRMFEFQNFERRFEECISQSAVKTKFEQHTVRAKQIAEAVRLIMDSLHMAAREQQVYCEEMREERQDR
Sequence (O95140 706-757, stated change not applied): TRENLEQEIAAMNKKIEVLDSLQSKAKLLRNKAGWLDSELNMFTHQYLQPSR
Assay: ITC
Collected pKd values appear next to each entry.
Value format note: pKd is -log10 of concentration (mol/L); just state the number.

{"columns": ["molecule", "pKd"],
 "data": [
  ["Nc1nc2c(ncn2[C@@H]2O[C@H](COP(=O)(O)OP(=O)(O)O)[C@@H](O)[C@H]2O)c(=O)[nH]1", 4.84]
]}

Now let's try a different one.
# molecule Nc1nc2c(ncn2[C@@H]2O[C@H](COP(=O)(O)OP(=O)(O)OP(O)(O)=S)[C@@H](O)[C@H]2O)c(=O)[nH]1 ; its pKd = 5.48
